# PROTOCOL NOTES: The clearance was measured in rat at dose 30 mg/kg after intravenous administration.
# Type: ADME, organism-based
# Set-up: dose 30 mg/kg, route intravenous
# CONDITION INFO: in vivo
PARAMETER: clearance (L/h/kg)
API: value field is a number in L/h/kg; no unit string.

Recorded clearance for "CCN(c1nc(C)cc(C)n1)c1c(Br)cc(OC)cc1OC" , please?
5.32

----------
# TGT: UniProt P34998
# Sequence (P34998 whole entry): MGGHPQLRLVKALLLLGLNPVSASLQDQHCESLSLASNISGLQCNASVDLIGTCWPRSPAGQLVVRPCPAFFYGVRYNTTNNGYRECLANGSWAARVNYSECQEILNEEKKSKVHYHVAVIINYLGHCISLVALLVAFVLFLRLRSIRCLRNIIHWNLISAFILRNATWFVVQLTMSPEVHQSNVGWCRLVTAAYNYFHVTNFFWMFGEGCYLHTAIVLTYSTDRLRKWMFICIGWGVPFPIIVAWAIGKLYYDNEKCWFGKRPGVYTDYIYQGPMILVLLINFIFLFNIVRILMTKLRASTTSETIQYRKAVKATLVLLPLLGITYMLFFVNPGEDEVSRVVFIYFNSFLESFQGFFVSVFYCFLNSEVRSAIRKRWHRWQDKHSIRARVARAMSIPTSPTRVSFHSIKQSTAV
# PROTOCOL NOTES: Binding affinity for human recombinant corticotropin releasing factor receptor 1
PARAMETER: Ki (nM)
API: value field is a number in nM; no unit string.

Recorded Ki for "C=CCNc1nc(C)nc(N(CC)c2ccc(C(C)C)cc2Br)n1" , please?
33

Try this compound next: "CCN(c1nc(C)cc(C)n1)c1ccc(C(C)=O)cc1SC"
90

Try this compound next: "C=CCN(c1nc(C)nc(N(CC)c2ccc(C(C)C)cc2Br)n1)C1CC1"
5

----------
Catalogue of compounds with associated log10 of Ki
# TGT: Corticotropin-releasing factor receptor 1 (Homo sapiens, UniProt P34998)
# Sequence (P34998 whole entry): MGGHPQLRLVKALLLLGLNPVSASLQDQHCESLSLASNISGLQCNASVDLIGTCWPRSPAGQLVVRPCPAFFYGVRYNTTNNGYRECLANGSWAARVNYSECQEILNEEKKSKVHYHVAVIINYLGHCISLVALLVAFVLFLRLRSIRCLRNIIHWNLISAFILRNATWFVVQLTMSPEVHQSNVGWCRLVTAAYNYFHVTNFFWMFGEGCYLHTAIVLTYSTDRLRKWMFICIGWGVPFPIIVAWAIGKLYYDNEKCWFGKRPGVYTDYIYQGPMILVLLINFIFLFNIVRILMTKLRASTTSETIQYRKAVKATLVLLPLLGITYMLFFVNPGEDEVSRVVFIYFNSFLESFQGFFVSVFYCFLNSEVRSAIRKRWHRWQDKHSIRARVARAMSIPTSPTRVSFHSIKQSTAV
# PROTOCOL NOTES: Binding affinity for human recombinant corticotropin releasing factor receptor 1
Annotation: log10 of Ki, µM basis.

Reference set (6 entries):
CCN(CC)c1cc(C)nc(N(CC)c2c(Cl)cc(OC)cc2Cl)n1    -1.82
C=CCN(CC=C)c1nc(C)nc(N(CC)c2ccc(N(C)C)cc2Br)n1    -2.52
CCCCN(Cc1nnnn1C)c1cc(C)nc(N(CC)c2ccc(C(C)C)cc2Br)n1    -1.39
CCCN(CCC#N)c1nc(C)nc(N(CC)c2ccc(N(C)C)cc2C(F)(F)F)n1    -2.30
CCN(CC)c1nc(C)nc(N(CC)c2ccc(N(C)C)cc2Br)n1    -2.22
CCN(CC)c1cc(C)nc(N(CC)c2c(Br)cc(C(C)=O)cc2OC)n1    -1.55

Recorded log10 of Ki for "CCCN(CCC#N)c1nc(C)nc(N(CC)c2ccc(N(C)C)cc2C)n1" , please?
-2.15
